target entity: T1, CD3 epsilon homodimer protein (UniProt P07766 23-126)
T1 construct: also called CD3 (CD3 epsilon)
T1 sequence (P07766 23-126): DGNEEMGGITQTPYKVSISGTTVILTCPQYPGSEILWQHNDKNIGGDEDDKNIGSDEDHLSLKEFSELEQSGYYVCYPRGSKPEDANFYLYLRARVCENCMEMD
assay procedure: SPR, antibody over immobilised CD3e homodimer;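 note: SPR at 25 °C with CD3 epsilon homodimer amine-coupled to a CM4 sensor chip and antibody flowed over as analyte in HBS-EP+ running buffer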
Consider the following binders; for each one, report its KD ratio to GLS3000.
Lab note: jot down the number only; don't add units.

Need KD ratio to GLS3000, item CE115HA000/GLS3000 L33A (antibody, IgG1, name in Kabat numbering, V domains shown, one-arm IgG1) VH: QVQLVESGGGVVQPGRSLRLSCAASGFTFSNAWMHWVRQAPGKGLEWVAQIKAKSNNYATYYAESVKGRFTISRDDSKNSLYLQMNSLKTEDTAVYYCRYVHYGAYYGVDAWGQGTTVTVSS VL: DIVMTQSPLSLPVTPGEPASISCRSSQSLVHSNRNTYAHWYQQKPGQAPRLLIYKVSNRFSGVPDRFSGSGSGTDFTLKISRVEAEDVGVYYCGQGTQVPYTFGQGTKLEIK
0.82

Param item = CE115HA000/GLS3000 H34Y (antibody, IgG1, name in Kabat numbering, V domains shown, one-arm IgG1) VH: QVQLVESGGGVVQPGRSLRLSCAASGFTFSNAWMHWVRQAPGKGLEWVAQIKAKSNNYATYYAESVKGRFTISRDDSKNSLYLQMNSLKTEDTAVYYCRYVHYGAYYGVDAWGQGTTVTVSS VL: DIVMTQSPLSLPVTPGEPASISCRSSQSLVHSNRNTYLYWYQQKPGQAPRLLIYKVSNRFSGVPDRFSGSGSGTDFTLKISRVEAEDVGVYYCGQGTQVPYTFGQGTKLEIK ; retrieve measured KD ratio to GLS3000.
2.44

Please give the measured KD ratio to GLS3000 for this binder: CE115HA000/GLS3000 S56M (antibody, IgG1, name in Kabat numbering, V domains shown, one-arm IgG1) VH: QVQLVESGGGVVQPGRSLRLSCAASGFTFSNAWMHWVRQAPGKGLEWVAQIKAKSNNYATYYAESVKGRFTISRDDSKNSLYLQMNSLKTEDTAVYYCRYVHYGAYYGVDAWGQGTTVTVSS VL: DIVMTQSPLSLPVTPGEPASISCRSSQSLVHSNRNTYLHWYQQKPGQAPRLLIYKVSNRFMGVPDRFSGSGSGTDFTLKISRVEAEDVGVYYCGQGTQVPYTFGQGTKLEIK
0.93
